# ASSAY NOTES: NCI Yeast Anticancer Drug Screen. Data for the cln2 rad14 strain (AID 165);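 also: 0% = growth equal to vehicle treated cultures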
# CONDITION PARAMETERS: S. cerevisiae cln2 rad14 strain, at 50.0 µM, stronger effect = higher value
About 79,000 compounds went through this panel and 15% of them were active in at least one assay; those are over-represented in the sample as a whole.
PROPERTY: growth inhibition (%)

{"GIVEN SMILES": "S=C1CNC(=S)CN1", "PROPERTY": "growth inhibition", "READOUT VALUE": 8.75}
{"GIVEN SMILES": "Cc1c([N+](=O)[O-])cc2c(c1[N+](=O)[O-])C(=O)c1ccccc1-2", "PROPERTY": "growth inhibition", "READOUT VALUE": -14.9}
{"GIVEN SMILES": "Clc1ccc(-c2nc(CSc3ccccn3)cs2)cc1", "PROPERTY": "growth inhibition", "READOUT VALUE": -22.2}
{"GIVEN SMILES": "CC(C)=CCC/C(C)=C/CO", "PROPERTY": "growth inhibition", "READOUT VALUE": 35.1}
{"GIVEN SMILES": "Cc1cc(C)cc([N+](=O)[O-])c1", "PROPERTY": "growth inhibition", "READOUT VALUE": 20.1}
{"GIVEN SMILES": "CC(C)CCCOC(=O)c1ccccc1", "PROPERTY": "growth inhibition", "READOUT VALUE": -3.2}
{"GIVEN SMILES": "O=C(O)c1ccc(O)c([N+](=O)[O-])c1", "PROPERTY": "growth inhibition", "READOUT VALUE": 9}
{"GIVEN SMILES": "Cc1nc2ccc(Cl)cc2c2c1CCS2", "PROPERTY": "growth inhibition", "READOUT VALUE": -18.1}
